Entry source: patent US20230348369A1

target: human NAMPT (Homo sapiens, UniProt P43490); assay: Human recombinant enzyme assay (NMN fluorescence biochemical assay, activation of NAMPT)
Sequence (P43490 whole entry): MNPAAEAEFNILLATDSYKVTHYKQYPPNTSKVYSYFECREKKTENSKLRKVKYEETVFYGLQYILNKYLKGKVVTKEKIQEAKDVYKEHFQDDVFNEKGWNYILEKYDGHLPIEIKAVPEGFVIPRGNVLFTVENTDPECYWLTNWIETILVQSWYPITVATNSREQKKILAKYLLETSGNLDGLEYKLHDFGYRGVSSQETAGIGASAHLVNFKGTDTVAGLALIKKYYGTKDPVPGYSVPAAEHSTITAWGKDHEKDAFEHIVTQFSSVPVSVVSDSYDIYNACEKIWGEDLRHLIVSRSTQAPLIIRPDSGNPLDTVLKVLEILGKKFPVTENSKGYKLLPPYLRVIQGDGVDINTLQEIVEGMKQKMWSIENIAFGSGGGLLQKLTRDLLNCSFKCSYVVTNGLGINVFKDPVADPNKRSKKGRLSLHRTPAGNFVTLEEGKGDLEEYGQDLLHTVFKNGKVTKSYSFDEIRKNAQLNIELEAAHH
measurement_kind: EC50 (µM)
Answers are plain numbers, in µM.

Study these solved cases before continuing.
Prompt: What EC50 value was documented for this compound, CC(C)(O)CN1CCN(C(=O)[C@H]2C[C@@]3(C[C@H](NC(=O)NCc4ccc(Cl)cc4)C3)C2)CC1 (single isomer, unassigned) ?
Completion: 0.6

Prompt: Look up EC50: COc1ccc(CNC(=O)NC2CC3(C2)CN(C(=O)Nc2cccc(C#N)n2)C3)cc1
Completion: 42.8

Prompt: Quick one: EC50 for N#Cc1cnn(CC2CC3(C2)CC(NC(=O)NCc2ccc(Cl)cc2)C3)c1 (stereo not shown) ?
Completion: 4.4

Let's switch to this compound now.
Prompt: Look at this compound and give its reported EC50. COc1ccc(CNC(=O)NC2CC3(C2)CN(C(=O)c2cccc(N4CCCC4)c2)C3)cc1
Completion: 12.4
